# study_target: KRAS(G12D) (Homo sapiens, UniProt P01116, G12D)
# Construct: endogenous in cells; host or cells: SW1990
# Sequence (P01116 1-188 isoform P01116-2 G12D): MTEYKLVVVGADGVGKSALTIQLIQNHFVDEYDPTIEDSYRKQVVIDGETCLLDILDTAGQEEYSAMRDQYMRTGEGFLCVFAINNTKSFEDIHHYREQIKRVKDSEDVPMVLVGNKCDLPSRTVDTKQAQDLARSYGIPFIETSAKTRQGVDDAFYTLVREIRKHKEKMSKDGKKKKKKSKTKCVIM
# measurement_description: SW1990 WB assay (degradation DC50, Dmax)
# Format: cell-based
# condition_details: Western blot, SW1990 cells
property_name: Dmax

Below, 2 molecules whose answers are already recorded.
- molecule: "C#Cc1c(F)ccc2cc(O)cc(-c3ncc4c(N5CC6CCC(C5)N6)nc(OCC5(CN6CCC(CN7CCN(c8ccc9c(c8)CN(C8CCC(=O)NC8=O)C9=O)CC7)CC6)CC5)nc4c3F)c12 (stereo not drawn) [Compound 99]"
  property_name: "Dmax"
  reported_value: "> 50%"
- molecule: "C#Cc1c(F)ccc2cc(O)cc(-c3ncc4c(N5CC6CCC(C5)N6)nc(OCC5(CN6CCC(CN7CCC(c8ccc9c(c8)CN(C8CCC(=O)NC8=O)C9=O)CC7)CC6)CC5)nc4c3F)c12 (stereo not drawn) [Compound 111]"
  property_name: "Dmax"
  reported_value: "> 50%"

# next molecule below
Item: C#Cc1cccc2cc(O)cc(-c3ncc4c(N5CC6CCC(C5)N6)nc(OCC5(CN6CCN(CC7CCN(CCC(=O)N[C@@H](C(=O)N8C[C@@H](O)C[C@@H]8C(=O)NCc8ccc(-c9scnc9C)cc8)C(C)(C)C)CC7)CC6)CC5)nc4c3F)c12 [Compound 83] | Dmax: 10 to 50%
